- Test system: Pseudomonas aeruginosa PA14 gacS^− biofilms
- experimental.details: Frequency of SCV cells arising from 24-h biofilms exposed for 18 h
- Format: cell-based
- settings: LB broth; antibiotic 1.25 μg mL^−1; overnight (18 h)
# No. of survivors annotations
Kindly provide the numeric value in log10 CFU peg^−1 only, without the unit symbol.

Below, 2 compounds whose answers are already recorded.
Under Pseudomonas aeruginosa PA14 gacS^− biofilms: No. of survivors value of C[C@H]1[C@H](NC(=O)/C(=N\OC(C)(C)C(=O)O)c2csc(N)n2)C(=O)N1S(=O)(=O)O ?
4.5

Under Pseudomonas aeruginosa PA14 gacS^− biofilms: No. of survivors value of CO/N=C(\C(=O)N[C@@H]1C(=O)N2C(C(=O)O)=C(CSc3nc(=O)c(O)nn3C)CS[C@H]12)c1csc(N)n1 ?
6.8

***
Under Pseudomonas aeruginosa PA14 gacS^− biofilms: No. of survivors value of NC[C@H]1O[C@H](O[C@H]2[C@H](O)[C@@H](O[C@H]3O[C@H](CO)[C@@H](O)[C@H](N)[C@H]3O)[C@H](N)C[C@@H]2N)[C@H](N)C[C@@H]1O ?
5.4

Under Pseudomonas aeruginosa PA14 gacS^− biofilms: No. of survivors value of C[C@@H](O)[C@H]1C(=O)N2C(C(=O)O)=C(SCCN=CN)C[C@H]12 ?
2.7

Under Pseudomonas aeruginosa PA14 gacS^− biofilms: No. of survivors value of Cc1onc(-c2ccccc2)c1C(=O)N[C@@H]1C(=O)N2[C@@H]1SC(C)(C)[C@@H]2C(=O)O ?
5.6

Reference for the values: patent US20080075730A1
